Here the recorded melting point is given for each entry.

| molecule | melting point |
| --- | --- |
| Cc1ccc(NC(=O)c2ccc(CN(C)C)c(C(F)(F)F)c2)cc1-c1ccc2cnncc2c1 [Example 19] | 240 to 241 °C |
| Cc1ccc(NC(=O)c2ccc(CN3CCOCC3)c(C(F)(F)F)c2)cc1-c1ccc2cnncc2c1 [Example 20] | 236 to 238 °C |
| Cc1ccc(NC(=O)c2ccc(CN3CCN(C)CC3)c(C(F)(F)F)c2)cc1-c1ccc2cnncc2c1 [Example 15] | 204 to 208 °C |
| Cc1ccc(NC(=O)c2cccc(C(F)(F)F)c2)cc1-c1ccc2ccncc2c1 [Example 1] | 148 to 152 °C |
| Cc1ccc(NC(=O)c2cccc(C(F)(F)F)c2)cc1-c1ccc2cnncc2c1 [Example 7] | 205 to 206 °C |
| Cc1ccc(C(=O)Nc2cccc(C(F)(F)F)c2)cc1-c1ccc2scnc2c1 [Example 10] | 200 to 202 °C |
| Cc1ccc(C(=O)Nc2ccc(CN(C)C)c(C(F)(F)F)c2)cc1-c1ccc2cnncc2c1 [Example 24] | 251 to 254 °C |
| Cc1ccc(C(=O)Nc2ccc(CN3CCCCC3)c(C(F)(F)F)c2)cc1-c1ccc2cnncc2c1 [Example 22] | 247 to 249 °C |
| Cc1ccc(NC(=O)c2ccc(CN3CCCCC3)c(C(F)(F)F)c2)cc1-c1ccc2cnncc2c1 [Example 17] | 175 to 177 °C |
| Cc1ccc(C(=O)Nc2ccc(CN3CCCC3)c(C(F)(F)F)c2)cc1-c1ccc2cnncc2c1 [Example 25] | 246 to 250 °C |
| Cc1ccc(NC(=O)c2cccc(C(F)(F)F)c2)cc1-c1ccc2scnc2c1 [Example 9] | 90 to 93 °C |
| Cc1ccc(C(=O)Nc2cccc(C(F)(F)F)c2)cc1-c1ccc2cnncc2c1 [Example 8] | 270 to 272 °C |
| Cc1ccc(C(=O)Nc2cccc(C(F)(F)F)c2)cc1-c1ccc2ncsc2c1 [Example 6] | 102 to 104 °C |
| Cc1ccc(C(=O)Nc2cccc(C(F)(F)F)c2)cc1-c1ccc2ccncc2c1 [Example 3] | 157 to 159 °C |
| Cc1ccc(NC(=O)c2cccc(C(F)(F)F)c2)cc1-c1ccc2ncsc2c1 [Example 5] | 94 to 96 °C |
| Cc1ccc(C(=O)Nc2ccc(CN3CCOCC3)c(C(F)(F)F)c2)cc1-c1ccc2cnncc2c1 [Example 23] | 284 to 287 °C |

Where do these numbers come from? They come from patent US20060035897A1.
